Target: Histamine H3 receptor (Rattus norvegicus)
Construct: from tissue; host or cells: rat cerebral cortex membranes
Assay: In vitro histamine H3 receptor binding analysis, [3H]-Nα-methylhistamine, rat cortical membranes
Conditions: Ki=IC50/(1+([Ligand]/[Kd])
Description: Briefly, animals were sacrificed by decapitation and the cerebral cortex was rapidly removed. […] Protein concentrations were determined by Coomassie Plus Protein Assay (Pierce, Rockford, Ill.). Nonspecific binding (NSB) was accounted for by the inclusion of thioperamide (10 μM). […] Filters were transferred to polyethylene minivials and counted in 3.5 ml of scintillation fluid (Ecolume, ICN Biomedicals, Inc.). […]
measured-property: Ki

> print(dat)
                         smiles.structure  measured.property  observed.measurement
1   CN[C@@H](Cc1ccccc1)C(=O)NCCc1c[nH]cn1                 Ki               1650 nM
2              C(#CCCC1CCCC1)CCc1c[nH]cn1                 Ki               0.95 nM
3    N[C@@H](CC1CCCCC1)C(=O)NCCc1cnc[nH]1                 Ki               30.8 nM
4            C(#CCCc1c[nH]cn1)CCCc1ccccc1                 Ki                6.7 nM
5  N[C@@H](COCc1ccccc1)C(=O)NCCc1c[nH]cn1                 Ki                122 nM

* * *

molecular target: Histamine H3 receptor (Rattus norvegicus, UniProt Q9QYN8); construct: from tissue; host or cells: rat cerebral cortex membranes; experiment: In vitro histamine H3 receptor binding analysis, [3H]-Nα-methylhistamine, rat cortical membranes; details: Ki=IC50/(1+([Ligand]/[Kd])
Sequence (Q9QYN8 whole entry): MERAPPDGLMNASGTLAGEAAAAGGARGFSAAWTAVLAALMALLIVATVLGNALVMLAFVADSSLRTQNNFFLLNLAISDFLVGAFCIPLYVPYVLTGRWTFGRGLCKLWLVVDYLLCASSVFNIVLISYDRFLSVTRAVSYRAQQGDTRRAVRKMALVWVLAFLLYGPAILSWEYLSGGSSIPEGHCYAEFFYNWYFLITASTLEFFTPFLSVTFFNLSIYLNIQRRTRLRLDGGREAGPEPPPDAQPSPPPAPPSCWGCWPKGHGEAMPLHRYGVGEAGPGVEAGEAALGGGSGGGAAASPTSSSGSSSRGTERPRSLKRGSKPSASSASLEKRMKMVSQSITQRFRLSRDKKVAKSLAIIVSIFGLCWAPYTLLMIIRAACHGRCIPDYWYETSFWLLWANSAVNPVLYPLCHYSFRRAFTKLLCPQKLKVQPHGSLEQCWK
Output y for records whose Ki is lower than 70 nM, n for records at or above 70 nM.

> print(dat)
                                   molecule                         system.under.test  classification
1  c1ncc(CCCCCCC2CCCCC2)[nH]1 [Example 41, 4-(6-Cyclohexylhexyl)imidazole]  Histamine H3 receptor (Rattus norvegicus, UniProt Q9QYN8)               n
2  BrC(Br)=CCCc1c[nH]cn1 [Example 47, 4-(4,4-Dibromobut-3-enyl)imidazole]  Histamine H3 receptor (Rattus norvegicus, UniProt Q9QYN8)               y
3  O=C(NCCc1c[nH]cn1)[C@@H]1CCCN1 [Example 2]  Histamine H3 receptor (Rattus norvegicus, UniProt Q9QYN8)               n
4  N[C@@H](Cc1cccc2ccccc12)C(=O)NCCc1c[nH]cn1 [Example 8]  Histamine H3 receptor (Rattus norvegicus, UniProt Q9QYN8)               n
5  C(#Cc1c[nH]cn1)CCCC1CCCCC1 [Example 36, 4-(5-Cyclohexylpent-1-ynyl)imidazole]  Histamine H3 receptor (Rattus norvegicus, UniProt Q9QYN8)               n
6  N[C@H](C(=O)NCCc1c[nH]cn1)c1ccccc1 [Example 9]  Histamine H3 receptor (Rattus norvegicus, UniProt Q9QYN8)               n
7  CC(=O)N[C@@H](CC1CCCCC1)C(=O)NCCc1c[nH]cn1 [Example 10]  Histamine H3 receptor (Rattus norvegicus, UniProt Q9QYN8)               n
8  N[C@@H](CC(=O)OCc1ccccc1)C(=O)NCCc1c[nH]cn1 [Example 15]  Histamine H3 receptor (Rattus norvegicus, UniProt Q9QYN8)               n
9  CCCCCC#CCCc1c[nH]cn1 [Example 33, 4-Non-3-ynylimidazole]  Histamine H3 receptor (Rattus norvegicus, UniProt Q9QYN8)               y
